- ASSAYED_TARGET: ~100 representative kinases (Homo sapiens, UniProt Q15418)
- Construct: Recombinant protein kinase domains with a concentration of 2 μM
- Sequence (Q15418 whole entry, the tested form may be a part): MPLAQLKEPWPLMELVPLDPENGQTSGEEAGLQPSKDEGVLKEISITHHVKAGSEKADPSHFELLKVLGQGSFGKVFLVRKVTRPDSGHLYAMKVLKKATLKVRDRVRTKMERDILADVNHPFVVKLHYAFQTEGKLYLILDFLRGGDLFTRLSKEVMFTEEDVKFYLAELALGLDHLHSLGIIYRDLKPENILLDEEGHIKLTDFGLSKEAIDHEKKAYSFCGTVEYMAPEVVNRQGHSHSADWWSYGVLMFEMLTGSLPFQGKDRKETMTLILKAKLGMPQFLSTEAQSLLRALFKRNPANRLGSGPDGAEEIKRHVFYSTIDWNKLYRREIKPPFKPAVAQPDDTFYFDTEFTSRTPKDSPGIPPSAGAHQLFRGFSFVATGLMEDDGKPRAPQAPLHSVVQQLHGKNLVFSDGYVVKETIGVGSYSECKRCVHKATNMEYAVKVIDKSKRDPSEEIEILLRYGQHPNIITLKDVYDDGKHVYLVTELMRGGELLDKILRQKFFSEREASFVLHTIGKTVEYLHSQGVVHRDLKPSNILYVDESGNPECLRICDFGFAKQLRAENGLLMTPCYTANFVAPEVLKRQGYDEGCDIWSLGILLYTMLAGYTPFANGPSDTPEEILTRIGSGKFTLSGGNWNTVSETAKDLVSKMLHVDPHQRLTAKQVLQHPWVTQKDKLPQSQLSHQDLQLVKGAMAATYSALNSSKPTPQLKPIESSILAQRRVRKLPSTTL
- ASSAY_PROTOCOL: DSF 100 kinase selectivity screen;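 further: compound tested at 20 µM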
- Type: binding
- CONDITION_PARAMETERS: Protein RPS6KA1; DSF; average of three replicates
# dTm listing for each entry below
Put your answer as a value accompanied by its unit after it.

[[record]]
compound = "COc1cc(C(=O)N2CCOCC2)c(F)cc1Nc1nc(N(C)C)c2c(Cl)c[nH]c2n1"
obs_value = "1.99 K"

[[record]]
compound = "CC(C)(C)c1cccc(NC(=O)C2(C(=O)Nc3cccc(-c4c[nH]c5ncnc(N6CCOCC6)c45)c3)CC2)c1"
obs_value = "-0.38 K"


Ask: Assign dTm to the following record: "O=C(Nc1ccc(Cl)cc1)C1(C(=O)Nc2cccc(-c3c[nH]c4ncnc(N5CCOCC5)c34)c2)CC1"
Reply: -0.42 K

Ask: Determine from records and report dTm for "Cc1ccc(-n2nc(C(C)(C)C)cc2NC(=O)Nc2cccc(-c3c[nH]c4nc(Cl)nc(N5CCOCC5)c34)c2)cc1"
Reply: -0.59 K

Ask: Assign dTm to the following record: "O=C(Nc1cccc(-c2c[nH]c3ncnc(N4CCOCC4)c23)c1)C1(C(=O)Nc2ccc(F)c(Cl)c2)CC1"
Reply: 0.70 K

Ask: Please give measured dTm of the following entry: CNC(=O)c1cc(Oc2ccc(NC(=O)Nc3cc(C(C)(C)C)nn3-c3ccc4ncccc4c3)c(F)c2)ccn1 [Rebastinib, reference compound]
Reply: 1.31 K
